These data points were gathered from patent US9637518B2.

TARGET OR TEST SYSTEM: His-BIR3 (241-356, XIAP) (Homo sapiens)
Construct: His-BIR3 (241-356, XIAP)
EXPERIMENT: XIAP-BIR3/SMAC Homogeneous Time Resolved Fluorescence (HTRF) Assay
RUN CONDITIONS: 1 nM N-His-BIR3, 5 nM fluorescein labeled SMAC peptide
REPORTED PROPERTY: IC50 (nM)
Respond with the bare value in nM.

Here are 3 compounds together with their reported answers.
Data request: For the record CN[C@@H](C)C(=O)N[C@H](C(=O)N1C[C@@H](c2ccc(C[C@H](NC(=O)[C@@H](NC(=O)[C@H](C)NC)C(C)(C)SCCO)C(=O)N[C@@H]3CCCc4ccccc43)cc2)C[C@H]1C(=O)N[C@@H]1CCCc2ccccc21)C(C)(C)C [Example 2] , what value of IC50 is listed for His-BIR3 (241-356, XIAP) (Homo sapiens)?
Data returned: 1.7

Data request: Please do the same for CN[C@@H](C)C(=O)N[C@H](C(=O)N1C[C@@H](c2ccc(C[C@H](NC(=O)[C@@H](NC(=O)[C@H](C)NC)C(C)(C)SCC(=O)NC(CO)CO)C(=O)NC3CCCc4ccccc43)cc2)C[C@H]1C(=O)NC1CCCc2ccccc21)C(C)(C)C (stereo partly shown) [Example 6] as well.
Data returned: 1.4

Data request: Try this compound next: CN[C@@H](C)C(=O)N[C@H](C(=O)N[C@@H](Cc1ccc(NC(=O)c2ccc(C(=O)N[C@H]3C[C@@H](C(=O)N[C@@H]4CCCc5ccccc54)N(C(=O)[C@@H](NC(=O)[C@H](C)NC)C(C)(C)C)C3)cc2)cc1)C(=O)N[C@@H]1CCCc2ccccc21)C1CCCCC1 [Example 8]
Data returned: 119

The record that follows has no IC50 shown yet.
Data request: What reported IC50 corresponds to CN[C@@H](C)C(=O)N[C@H](C(=O)N[C@@H](Cc1ccc([C@H]2C[C@@H](C(=O)N[C@@H]3CCCc4ccccc43)N(C(=O)[C@@H](NC(=O)[C@H](C)NC)C(C)(C)C)C2)cc1)C(=O)N[C@@H]1CCCc2ccccc21)C(C)(C)C [Example 3] on His-BIR3 (241-356, XIAP) (Homo sapiens)?
Data returned: 1.1

* * *

TARGET OR TEST SYSTEM: His-BIR3 (241-356, XIAP) (Homo sapiens, UniProt P98170)
Construct: His-BIR3 (241-356, XIAP)
Sequence (P98170 241-356): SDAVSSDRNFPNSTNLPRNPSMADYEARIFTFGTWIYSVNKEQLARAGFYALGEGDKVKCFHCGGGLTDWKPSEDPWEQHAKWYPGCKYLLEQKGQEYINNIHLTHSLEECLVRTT
EXPERIMENT: XIAP-BIR3/SMAC Homogeneous Time Resolved Fluorescence (HTRF) Assay
RUN CONDITIONS: 1 nM N-His-BIR3, 5 nM fluorescein labeled SMAC peptide
REPORTED PROPERTY: pIC50
Keep it numeric: pIC50 is minus log10 of the concentration in mol/L.

Reference set, count: 3
Data request: Form field - read-out: pIC50; system: His-BIR3 (241-356, XIAP) (Homo sapiens, UniProt P98170); submitted item: CN[C@@H](C)C(=O)N[C@H](C(=O)N[C@@H](Cc1ccc(C(=O)N[C@H]2C[C@@H](C(=O)N[C@@H]3CCCc4ccccc43)N(C(=O)[C@@H](NC(=O)[C@H](C)NC)C(C)(C)C)C2)cc1)C(=O)N[C@@H]1CCCc2ccccc21)C(C)(C)C [Example 5]
Data returned: 8.05

Data request: And the next one, CN[C@@H](C)C(=O)N[C@H](C(=O)N1C[C@@H](NC(=O)c2ccc(C(=O)Nc3ccc(C[C@H](NC(=O)[C@@H](NC(=O)[C@H](C)NC)C(C)(C)SC)C(=O)N[C@@H]4CCCc5ccccc54)cc3)cc2)C[C@H]1C(=O)N[C@@H]1CCCc2ccccc21)C(C)(C)C [Example 4] ?
Data returned: 7.86

Data request: What do you get for CN[C@@H](C)C(=O)N[C@H](C(=O)N[C@@H](Cc1ccc([C@H]2C[C@@H](C(=O)N[C@@H](COC)c3ccccc3)N(C(=O)[C@@H](NC(=O)[C@H](C)NC)C(C)(C)C)C2)cc1)C(=O)N[C@@H]1CCCc2ccccc21)C(C)(C)C [Example 7] ?
Data returned: 7.32

Read the next record carefully.
Data request: Requested read-out pIC50, target or system His-BIR3 (241-356, XIAP) (Homo sapiens, UniProt P98170), entry CN[C@@H](C)C(=O)N[C@H](C(=O)N1C[C@@H](c2ccc(C[C@H](NC(=O)[C@@H](NC(=O)[C@H](C)NC)C(C)(C)SCC(=O)N(C)C[C@@H](O)CO)C(=O)N[C@@H]3CCCc4ccccc43)cc2)C[C@H]1C(=O)N[C@@H]1CCCc2ccccc21)C(C)(C)C [Example 1]
Data returned: 8.77
